Tested on: HEK-293T
Assay: Incucyte cell viability with HEK293T; also: unitless GR value; below 1 slowed growth and below 0 cell loss
Format: toxicity, cell-based
Details: human, 24 h, 10 µM, compound concentration 10 uM, replicate number 1
Square brackets hold non-standard residues; d marks the D form. Peptide text beside a SMILES is read from it. Nle = CCCC[C@H](N)C(=O)O

| MOLECULE | SYSTEM UNDER TEST | Growth Rate |
| --- | --- | --- |
| Cn1ncc2c(-c3c(-c4ccc(F)cn4)nn4c3COC(C)(C)C4)ccnc21 | HEK-293T | 0.85 |
| NC(=O)[C@H]1CCCCc2c1[nH]c1ccc(Cl)cc21 | HEK-293T | 0.84 |
| CC(=O)Nc1ccc(OC[C@](C)(O)C(=O)Nc2ccc([N+](=O)[O-])c(C(F)(F)F)c2)cc1 | HEK-293T | 0.72 |
| CC(=O)N[C@@H](CC(=O)O)C(=O)N[C@@H](CCC(=O)O)C(=O)N[C@H](C(=O)N[C@@H](CC(=O)O)C(=O)CCl)C(C)C.O=C(O)C(F)(F)F | HEK-293T | 0.81 |
| [2H]C([2H])([2H])C1(C([2H])([2H])[2H])Cn2nc(-c3ccc(F)cn3)c(-c3ccnc4[nH]ncc34)c2CO1 | HEK-293T | 0.81 |
| Cc1cc(C)c(CNC(=O)c2cc(-c3ccc(N4CCN(C)CC4)nc3)cc3c2c(C)cn3C(C)C)c(=O)[nH]1 | HEK-293T | 0.42 |
| CCCCCCCCCCCCCCCCNNC(=O)c1cccs1 | HEK-293T | 0.8 |
| CCN(c1cc(-c2ccc(CN3CCOCC3)cc2)cc(C(=O)NCc2c(C)cc(C)[nH]c2=O)c1C)C1CCOCC1 | HEK-293T | 0.68 |
| O=C(C=Cc1ccc(O)cc1)c1ccc(O)cc1O | HEK-293T | 0.72 |
| CC(=O)N1CCC(Nc2cc(C(=O)NC[C@H](O)CN3CCc4ccccc4C3)ncn2)CC1 | HEK-293T | 0.9 |
| CNC(=O)c1ccc(-c2cc3cccc(-c4nn(C5CCOCC5)c5c4CN(C(C)=O)CC5)c3cn2)cn1 | HEK-293T | 0.61 |
| CCCC[C@@H](C=O)NC(=O)[C@H](CC(C)C)NC(=O)[C@H](CC(C)C)NC(C)=O (Ac-Leu-Leu-[Nle]-aldehyde) | HEK-293T | -0.02 |
| CCNC(=O)c1noc(-c2cc(C(C)C)c(O)cc2O)c1-c1ccc(CN2CCOCC2)cc1 | HEK-293T | -0.29 |
| O=C1/C(=N/Nc2ccc(S(=O)(=O)O)cc2)C(c2ccc([N+](=O)[O-])cc2)=NN1c1ccccc1 | HEK-293T | 0.59 |
| CC/C(=C(/c1ccc(/C=C/C(=O)O)cc1)c1ccc2[nH]ncc2c1)c1ccc(F)cc1Cl | HEK-293T | 0.82 |
| CCCN1CCN(c2ccc(C(=O)NC3(C(=O)NCC#N)CCCCC3)cc2)CC1 | HEK-293T | 0.79 |
| CN1CCN(c2nc(-c3ccc(C(=O)NC4(C(=O)NCC#N)CCCCC4)cc3)cs2)CC1 | HEK-293T | 0.86 |
| O=C(O)/C(S)=C/c1c[nH]c2ccc(F)cc12 | HEK-293T | 0.73 |

The reported measurements were obtained from ChEMBL document CHEMBL5724709.
